- system_tested: pseudolysin (PLN, LasB) (Pseudomonas aeruginosa, UniProt P14756)
- Construct: purchased Calbiochem (San Diego, CA, USA)
- Sequence (P14756 198-498): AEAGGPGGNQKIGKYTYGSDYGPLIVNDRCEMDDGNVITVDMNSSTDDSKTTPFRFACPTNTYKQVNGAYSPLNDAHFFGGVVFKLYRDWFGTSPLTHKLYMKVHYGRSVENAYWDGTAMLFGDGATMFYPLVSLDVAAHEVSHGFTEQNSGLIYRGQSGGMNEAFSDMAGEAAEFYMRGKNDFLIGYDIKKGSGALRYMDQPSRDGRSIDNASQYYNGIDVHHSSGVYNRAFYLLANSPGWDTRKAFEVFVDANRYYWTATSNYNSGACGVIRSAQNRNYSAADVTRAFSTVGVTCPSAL
- assay_protocol: Enzyme inhibition kinetics, fluorogenic substrate ES005
- Type: biochemical
- measurement_context: 0.5 h, read-out: vi/v0 avg, Pseudolysin; 100 µM inhibitor; 30 min pre incubation
Provide the reported remaining activity at 100 µM of each item.
Value expressed in %; do not type the unit.

input: Data request, read-out remaining activity at 100 µM, for NC(=O)C(CCC(=O)O)NC(=O)C(CCC(=O)O)NC(=O)C(Cc1cc(-c2ccc(-c3cccc(Cl)c3)cc2)no1)CP(=O)(O)c1ccc(Br)cc1 (stereo not shown)
output: 96.9

input: Data request, read-out remaining activity at 100 µM, for CC(NC(=O)OCc1ccccc1)P(=O)(O)CC(Cc1ccccc1)C(=O)O (stereo not shown)
output: 64

input: Data request, read-out remaining activity at 100 µM, for CCOC(=O)C(CO)CP(=O)(O)C(Cc1ccccc1)NC(=O)OCc1ccccc1 (stereo not shown)
output: 75.4

input: Data request, read-out remaining activity at 100 µM, for NC(=O)C(Cc1c[nH]c2ccccc12)NC(=O)C(CCCc1ccccc1)CP(=O)(O)C(Cc1ccccc1)NC(=O)OCc1ccccc1 (stereo not shown)
output: 28.3

====

- system_tested: Mag-Trypsin activated MMP-9 (MMP-9(MT)) (Homo sapiens, UniProt P14780)
- Construct: made in house; host or cells: Sf9 and High Five insect cells
- Sequence (P14780 107-707 limits assumed): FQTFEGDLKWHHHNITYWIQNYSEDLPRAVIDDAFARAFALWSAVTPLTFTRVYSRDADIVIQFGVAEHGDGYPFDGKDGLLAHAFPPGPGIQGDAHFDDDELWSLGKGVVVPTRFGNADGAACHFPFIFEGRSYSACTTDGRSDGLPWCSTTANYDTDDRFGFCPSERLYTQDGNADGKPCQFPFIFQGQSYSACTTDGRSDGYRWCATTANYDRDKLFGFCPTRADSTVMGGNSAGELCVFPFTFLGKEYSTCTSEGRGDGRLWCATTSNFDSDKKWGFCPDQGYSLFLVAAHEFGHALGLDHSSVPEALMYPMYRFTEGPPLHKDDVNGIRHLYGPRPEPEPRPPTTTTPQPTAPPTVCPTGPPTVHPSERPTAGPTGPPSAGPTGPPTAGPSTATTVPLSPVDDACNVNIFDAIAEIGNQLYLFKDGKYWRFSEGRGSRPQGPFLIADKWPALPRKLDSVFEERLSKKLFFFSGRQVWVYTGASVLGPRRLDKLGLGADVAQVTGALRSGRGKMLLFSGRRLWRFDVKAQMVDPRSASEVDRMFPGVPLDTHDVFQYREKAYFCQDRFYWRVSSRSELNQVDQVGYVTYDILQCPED
- assay_protocol: Enzyme inhibition kinetics, fluorogenic substrate ES001
- Assay type: biochemical
- measurement_context: MMP-9(MT); 100 μM compound; in words
property: inhibitory effect on enzymatic activity

CC(NC(=O)OCc1ccccc1)P(=O)(O)CC(Cc1ccccc1)C(=O)O (centres unmarked) [H-4]	weak or no inhibition
CCOC(=O)C(CO)CP(=O)(O)C(Cc1ccccc1)NC(=O)OCc1ccccc1 (centres unmarked) [H-5]	weak or no inhibition
NC(=O)C(Cc1c[nH]c2ccccc12)NC(=O)C(CCCc1ccccc1)CP(=O)(O)C(Cc1ccccc1)NC(=O)OCc1ccccc1 (centres unmarked) [H-2]	strong inhibition
NC(=O)C(CCC(=O)O)NC(=O)C(CCC(=O)O)NC(=O)C(Cc1cc(-c2ccc(-c3cccc(Cl)c3)cc2)no1)CP(=O)(O)c1ccc(Br)cc1 (centres unmarked) [H-1]	strong inhibition

In the following, a different compound is considered.
input: Data request, read-out inhibitory effect on enzymatic activity, for CC(=O)NC(CC(C)C)C(=O)CC(C)P(=O)(O)CC(Cc1ccccc1)C(=O)O (centres unmarked) [H-3]
output: weak or no inhibition

====

- system_tested: aureolysin (ALN) (Staphylococcus aureus)
- Construct: purchased BioCentrum Ltd (Kraków, Poland)
- Sequence (P81177 209-509): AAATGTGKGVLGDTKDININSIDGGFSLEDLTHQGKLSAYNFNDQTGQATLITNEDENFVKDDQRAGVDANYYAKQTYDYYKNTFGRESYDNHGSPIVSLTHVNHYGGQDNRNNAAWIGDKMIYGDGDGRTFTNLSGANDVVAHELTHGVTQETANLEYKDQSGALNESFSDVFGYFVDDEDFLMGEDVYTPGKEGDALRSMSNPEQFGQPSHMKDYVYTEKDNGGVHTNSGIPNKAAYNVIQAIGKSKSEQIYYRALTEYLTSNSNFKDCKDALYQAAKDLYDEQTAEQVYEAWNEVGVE
- assay_protocol: Enzyme inhibition kinetics, fluorogenic substrate ES005
- Type: biochemical
- measurement_context: read-out: vi/v0 (single replicate), Aureolysin; 100 µM inhibitor; no preincubation
property: remaining activity at 100 µM
Answer by giving the amount and then stating its unit.

input: State its remaining activity at 100 µM on aureolysin (ALN) (Staphylococcus aureus): NC(=O)C(Cc1c[nH]c2ccccc12)NC(=O)C(CCCc1ccccc1)CP(=O)(O)C(Cc1ccccc1)NC(=O)OCc1ccccc1 (stereo not shown)
output: 42.4%

input: State its remaining activity at 100 µM on aureolysin (ALN) (Staphylococcus aureus): NC(=O)C(CCC(=O)O)NC(=O)C(CCC(=O)O)NC(=O)C(Cc1cc(-c2ccc(-c3cccc(Cl)c3)cc2)no1)CP(=O)(O)c1ccc(Br)cc1 (stereo not shown)
output: 83.6%

input: State its remaining activity at 100 µM on aureolysin (ALN) (Staphylococcus aureus): CC(NC(=O)OCc1ccccc1)P(=O)(O)CC(Cc1ccccc1)C(=O)O (stereo not shown)
output: 93.6%

input: State its remaining activity at 100 µM on aureolysin (ALN) (Staphylococcus aureus): CCOC(=O)C(CO)CP(=O)(O)C(Cc1ccccc1)NC(=O)OCc1ccccc1 (stereo not shown)
output: 84.6%
